- SYSTEM: T1, Myosin heavy chain, muscle (LMM) 1346-1941 (Drosophila melanogaster, UniProt P05661)
- T1 chain: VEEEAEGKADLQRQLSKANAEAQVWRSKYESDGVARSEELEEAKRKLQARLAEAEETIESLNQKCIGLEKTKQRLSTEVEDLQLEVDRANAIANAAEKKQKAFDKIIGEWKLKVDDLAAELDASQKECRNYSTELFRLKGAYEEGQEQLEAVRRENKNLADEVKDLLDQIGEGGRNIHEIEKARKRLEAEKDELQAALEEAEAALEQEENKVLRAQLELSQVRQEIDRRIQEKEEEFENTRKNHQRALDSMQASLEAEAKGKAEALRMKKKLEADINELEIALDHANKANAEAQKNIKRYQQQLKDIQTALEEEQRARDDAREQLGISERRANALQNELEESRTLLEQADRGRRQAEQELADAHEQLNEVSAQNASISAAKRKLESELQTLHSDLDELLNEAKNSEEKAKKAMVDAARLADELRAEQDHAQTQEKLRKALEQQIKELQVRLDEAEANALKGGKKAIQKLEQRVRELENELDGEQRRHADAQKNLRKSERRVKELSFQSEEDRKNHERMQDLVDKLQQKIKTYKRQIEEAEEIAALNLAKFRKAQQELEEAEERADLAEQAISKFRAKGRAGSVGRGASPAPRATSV
- TEST PROTOCOL: co-sedimentation
QUANTITY KIND: Kd (nM)

[[record]]
binder = "Flightin (WYR domain) 84-136 (protein) HWVRPKFLQYKYMYNYRTNYYDDVIDYIDKKQTGVAREIPRPQTWAERVLRTR"
quantity_kind = "Kd"
observed_result = 2060

